Target: CD80-CD28 interaction (Homo sapiens, UniProt P33681)
Construct: mouse Fab fragment (fusion partner)
Test: cell free Homogenous Time Resolved Fluorescence (HTRF) assay, inhibition of the CD80-CD28 interaction
Assay type: binding
Conditions: 4 hours at room temperature, read-out: Activity (EC50 in summary form)
pEC50: −log10 of the molar value.
ASSAY ENDPOINT: pEC50

[
  {
    "CHEMICAL SMILES": "O=C(NCCCCN1CCCC1)c1ccc(-n2nc3c4cccc(F)c4[nH]cc-3c2=O)c(Cl)c1",
    "MEASUREMENT TARGET": "CD80-CD28 interaction (Homo sapiens, UniProt P33681)",
    "pEC50": "5.00 to 6.00"
  }
]

Can you look up the measured pEC50 of O=C(NCCc1cccnc1)c1ccc(-n2nc3c4cccc(F)c4[nH]c(C4CC4)c-3c2=O)cc1 for me?
< 5.00

Can you look up the measured pEC50 of O=C(Nc1ccccc1)Nc1ccc(-n2nc3c4cccc(F)c4[nH]cc-3c2=O)cc1 for me?
5.00 to 6.00

Can you look up the measured pEC50 of CN(C)c1ccc(CNC(=O)c2ccc(-n3nc4c5cccc(F)c5[nH]cc-4c3=O)cc2)cc1 for me?
> 6.00

* * *

Biological target: CD80-CD28 interaction (Homo sapiens, UniProt P33681)
Construct: mouse Fab fragment (fusion partner)
Sequence (P33681 35-242 limits assumed): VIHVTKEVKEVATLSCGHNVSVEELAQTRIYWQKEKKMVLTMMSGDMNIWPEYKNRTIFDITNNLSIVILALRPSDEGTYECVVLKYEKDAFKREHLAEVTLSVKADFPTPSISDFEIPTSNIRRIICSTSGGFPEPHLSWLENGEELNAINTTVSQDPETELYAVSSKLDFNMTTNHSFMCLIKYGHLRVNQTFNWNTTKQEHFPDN
Assay: cell free Homogenous Time Resolved Fluorescence (HTRF) assay, inhibition of the CD80-CD28 interaction
Type: binding
Conditions: 4 hours at room temperature, read-out: Activity (EC50 in summary form)
pEC50: −log10 of the molar value.
# maps each entry to its pEC50

Examples with answers:
[
  {
    "COMPOUND": "CC(C)(C)C(=O)Nc1ccc(-n2nc3c4cccc(F)c4[nH]cc-3c2=O)cc1 [Example 7]",
    "MEASUREMENT TARGET": "CD80-CD28 interaction (Homo sapiens, UniProt P33681)",
    "VALUE REPORTED": "5.00 to 6.00"
  },
  {
    "COMPOUND": "CCCC(CCC)C(=O)Nc1ccc(-n2nc3c4cccc(F)c4[nH]cc-3c2=O)cc1 [Example 5]",
    "MEASUREMENT TARGET": "CD80-CD28 interaction (Homo sapiens, UniProt P33681)",
    "VALUE REPORTED": "< 5.00"
  }
]

Can you look up the measured pEC50 of O=C(Nc1ccc(-n2nc3c4cccc(F)c4[nH]cc-3c2=O)cc1)c1ccco1 [Example 10] for me?
< 5.00

Can you look up the measured pEC50 of CC1(C)CC(NC(=O)c2ccc(-n3nc4c5cccc(F)c5[nH]cc-4c3=O)cc2)CC(C)(C)N1 [Example 118] for me?
> 6.00

* * *

Target: CD80-CD28 interaction (Homo sapiens, UniProt P33681)
Construct: mouse Fab fragment (fusion partner)
Test: cell free Homogenous Time Resolved Fluorescence (HTRF) assay, inhibition of the CD80-CD28 interaction
Type: binding
Conditions: 4 hours at room temperature, read-out: Activity (EC50 in summary form)
pEC50: −log10 of the molar value.
ASSAY ENDPOINT: pEC50

Examples with answers:
[
  {
    "MOLECULE": "CN(C)CCCNC(=O)c1ccc(-n2nc3c4cccc(F)c4[nH]cc-3c2=O)c(Cl)c1",
    "VALUE REPORTED": "5.00 to 6.00"
  },
  {
    "MOLECULE": "O=C(NCCCN1CCCC1)c1ccc(-n2nc3c4cccc(F)c4[nH]cc-3c2=O)cc1",
    "VALUE REPORTED": "> 6.00"
  },
  {
    "MOLECULE": "O=C(NCC1CCCCC1)c1ccc(-n2nc3c4cccc(F)c4[nH]cc-3c2=O)cc1",
    "VALUE REPORTED": "5.00 to 6.00"
  },
  {
    "MOLECULE": "CC(C)C(C)NC(=S)Nc1ccc(-n2nc3c4cccc(F)c4[nH]cc-3c2=O)cc1 (centres unmarked)",
    "VALUE REPORTED": "5.00 to 6.00"
  },
  {
    "MOLECULE": "CN(C)CCCOC(=O)Nc1ccc(-n2nc3c4cccc(F)c4[nH]cc-3c2=O)cc1",
    "VALUE REPORTED": "> 6.00"
  },
  {
    "MOLECULE": "O=C(NCc1ccccc1)c1ccc(-n2nc3c4cccc(F)c4[nH]cc-3c2=O)cc1",
    "VALUE REPORTED": "> 6.00"
  },
  {
    "MOLECULE": "CCCCC(CC)C(=O)Nc1ccc(-n2nc3c4cccc(F)c4[nH]cc-3c2=O)cc1 (centres unmarked)",
    "VALUE REPORTED": "< 5.00"
  }
]

Continue with the next molecule.
Can you look up the measured pEC50 of CN(C)CCCNC(=O)c1ccc(-n2nc3c4cccc(F)c4[nH]cc-3c2=O)cc1Cl for me?
5.00 to 6.00

* * *

# maps each entry to its EC50
Target: CD80-CD28 interaction (Homo sapiens, UniProt P33681)
Construct: mouse Fab fragment (fusion partner)
Assay: cell free Homogenous Time Resolved Fluorescence (HTRF) assay, inhibition of the CD80-CD28 interaction
Assay type: binding
Details: read-out: EC50

[
  {
    "MOLECULE": "O=C(CNCCCN1CCCC1=O)Nc1ccc(-n2nc3c4cccc(F)c4[nH]cc-3c2=O)cc1 [Example 35]",
    "MEASUREMENT TARGET": "CD80-CD28 interaction (Homo sapiens, UniProt P33681)",
    "VALUE REPORTED": "148 nM"
  },
  {
    "MOLECULE": "O=C(Cc1c(Cl)cccc1Cl)Nc1ccc(-n2nc3c4cccc(F)c4[nH]cc-3c2=O)cc1 [Example 21]",
    "MEASUREMENT TARGET": "CD80-CD28 interaction (Homo sapiens, UniProt P33681)",
    "VALUE REPORTED": "1900 nM"
  },
  {
    "MOLECULE": "O=C(NCCCN1CCCC1)c1ccc(-n2nc3c4cccc(F)c4[nH]cc-3c2=O)cc1 [Example 83]",
    "MEASUREMENT TARGET": "CD80-CD28 interaction (Homo sapiens, UniProt P33681)",
    "VALUE REPORTED": "90 nM"
  }
]

Can you look up the measured EC50 of O=C(Nc1ccc(-n2nc3c4cccc(F)c4[nH]cc-3c2=O)cc1)c1ncoc1-c1ccccc1 [Example 15] for me?
8000 nM

Can you look up the measured EC50 of C[N+](C)(C)CCCC(=O)Nc1ccc(-n2nc3c4cccc(F)c4[nH]cc-3c2=O)cc1 [Example 29] for me?
950 nM

* * *

Target: CD80-CD28 interaction (Homo sapiens)
Construct: mouse Fab fragment (fusion partner)
Sequence (P33681 35-242 limits assumed): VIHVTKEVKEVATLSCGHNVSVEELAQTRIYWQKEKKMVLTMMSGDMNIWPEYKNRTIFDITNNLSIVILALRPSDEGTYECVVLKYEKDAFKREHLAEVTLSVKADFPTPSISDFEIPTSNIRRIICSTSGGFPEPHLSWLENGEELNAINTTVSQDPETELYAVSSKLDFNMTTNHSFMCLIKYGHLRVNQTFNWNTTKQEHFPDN
Test: cell free Homogenous Time Resolved Fluorescence (HTRF) assay, inhibition of the CD80-CD28 interaction
Assay type: binding
Conditions: 4 hours at room temperature, read-out: Activity (EC50 in summary form)
# maps each entry to its EC50

Examples with answers:
[
  {
    "MOLECULE": "O=C(NCCCn1ccnc1)c1ccc(-n2nc3c4cccc(F)c4[nH]cc-3c2=O)cc1",
    "ASSAY ENDPOINT": "EC50",
    "VALUE REPORTED": "< 1000 nM"
  },
  {
    "MOLECULE": "CN1C(C)(C)CC(NCC(=O)Nc2ccc(-n3nc4c5cccc(F)c5[nH]cc-4c3=O)cc2)CC1(C)C",
    "ASSAY ENDPOINT": "EC50",
    "VALUE REPORTED": "< 1000 nM"
  },
  {
    "MOLECULE": "CN(C)CCCN(C)C(=O)c1ccc(-n2nc3c4ccccc4[nH]cc-3c2=O)cc1",
    "ASSAY ENDPOINT": "EC50",
    "VALUE REPORTED": "1000 to 10000 nM"
  },
  {
    "MOLECULE": "COC(=O)CNC(=O)c1ccc(-n2nc3c4cccc(F)c4[nH]cc-3c2=O)cc1",
    "ASSAY ENDPOINT": "EC50",
    "VALUE REPORTED": "< 1000 nM"
  }
]

Can you look up the measured EC50 of O=C(NCCN1CCOCC1)c1ccc(-n2nc3c4cccc(F)c4[nH]cc-3c2=O)cc1 for me?
< 1000 nM

Can you look up the measured EC50 of CC(C)C(=O)Nc1ccc(-n2nc3c4ccccc4[nH]cc-3c2=O)cc1 for me?
1000 to 10000 nM

Can you look up the measured EC50 of N[C@H]1CC[C@H](NC(=O)c2ccc(-n3nc4c5cccc(F)c5[nH]cc-4c3=O)cc2)CC1 for me?
< 1000 nM

Can you look up the measured EC50 of O=C(CN1CCN(C2CCCCCC2)CC1)Nc1ccc(-n2nc3c4cccc(F)c4[nH]cc-3c2=O)cc1 for me?
< 1000 nM

Can you look up the measured EC50 of CN(Cc1ccccc1)C(=O)c1cccc(-n2nc3c4cccc(F)c4[nH]cc-3c2=O)c1 for me?
1000 to 10000 nM

Can you look up the measured EC50 of CC1CCCCN1CCCNC(=O)c1ccc(-n2nc3c4cccc(F)c4[nH]cc-3c2=O)cc1 (stereo not shown) for me?
< 1000 nM

Can you look up the measured EC50 of O=C(NCc1ccccc1)c1cccc(-n2nc3c4cccc(F)c4[nH]cc-3c2=O)c1 for me?
> 10000 nM

Can you look up the measured EC50 of CN(C)CCCN(C)C(=O)c1ccc(-n2nc3c4cccc(F)c4[nH]cc-3c2=O)cc1 for me?
< 1000 nM

Can you look up the measured EC50 of CCNC(=O)c1cccc(-n2nc3c4cccc(F)c4[nH]cc-3c2=O)c1 for me?
1000 to 10000 nM

Can you look up the measured EC50 of O=C(NCCCN1CCCC1)c1ccc(-n2nc3c4ccccc4[nH]cc-3c2=O)cc1 for me?
1000 to 10000 nM

Can you look up the measured EC50 of O=C(NCCCN1CCN(Cc2c(F)cccc2Cl)CC1)c1ccc(-n2nc3c4cccc(F)c4[nH]cc-3c2=O)cc1 for me?
< 1000 nM

Can you look up the measured EC50 of CN1CCN(CCCNC(=O)c2ccc(-n3nc4c5cccc(F)c5[nH]cc-4c3=O)cc2Cl)CC1 for me?
1000 to 10000 nM
